# Tested on: RSK1(Kin.Dom.1-N-terminal);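 further: KINOMEscan kinase panel screen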
# Construct: gene RPS6KA1
# EXPERIMENTAL CONTEXT: concentration: 1 μM, replicates: in singlicate; n = 1
MEASUREMENT LABEL: %Inh (%)
State the answer as a number, implicitly in %.

Illustrative cases are given below, each with its answer.
COMPOUND	TEST SYSTEM	MEASURED VALUE
Cl.O=C(Nc1cccc(-c2nn3ncccc3c2-c2ccnc(Nc3cccnc3)n2)c1)c1c(F)cccc1F [GSK312879]	RSK1(Kin.Dom.1-N-terminal)	8
Fc1cc(Cl)ccc1Nc1ccnc2cc(-c3ccc(CN4CCCCC4)o3)ccc12 [GW560116]	RSK1(Kin.Dom.1-N-terminal)	0
Cc1ccc(NC(=O)Nc2cc(C(C)(C)C)nn2-c2ccccc2)cc1 [GSK1014915]	RSK1(Kin.Dom.1-N-terminal)	16
COc1ccc2nc(-c3cccc(C)n3)nc(Nc3ccncc3)c2c1 [GSK204919]	RSK1(Kin.Dom.1-N-terminal)	2
COc1ccc(CNC(=O)NC2CCN(c3ccnc(Nc4cc(OC)c(OC)c(OC)c4)n3)C2)cc1 (stereo not drawn) [GSK1379748]	RSK1(Kin.Dom.1-N-terminal)	0

Here's the next entry for you.
IN: What measured %Inh goes with COc1cccc(-c2cc(-c3c[nH]nc3-c3ccccn3)ccn2)c1 [GW680338] ?
OUT: 0
